molecular target: Adenosine receptor A2a (Homo sapiens); settings: Flp-In-CHO, filed as antagonist, time 60-90 min
Sequence (P29274 whole entry): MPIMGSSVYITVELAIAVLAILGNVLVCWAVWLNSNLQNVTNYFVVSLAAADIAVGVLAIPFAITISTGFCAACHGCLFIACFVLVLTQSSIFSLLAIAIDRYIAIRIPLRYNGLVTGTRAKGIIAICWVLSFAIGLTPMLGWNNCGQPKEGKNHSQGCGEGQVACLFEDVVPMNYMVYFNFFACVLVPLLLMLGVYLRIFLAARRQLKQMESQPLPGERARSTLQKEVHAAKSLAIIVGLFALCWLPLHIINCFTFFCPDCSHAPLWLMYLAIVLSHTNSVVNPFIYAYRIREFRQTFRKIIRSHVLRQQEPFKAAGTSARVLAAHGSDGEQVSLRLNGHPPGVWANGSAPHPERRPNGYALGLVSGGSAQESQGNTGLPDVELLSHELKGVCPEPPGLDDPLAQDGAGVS
value-kind: pKb

C=C1CCC(C(=O)Nc2nc3c(s2)Cc2ccccc2-3)CC1; 7.03
O=C(Nc1nc2c(s1)Cc1ccccc1-2)C1CCCCC1; 7
CC1(C(=O)Nc2nc3c(s2)Cc2ccccc2-3)CCC(=O)CC1; 7.25
O=C(Nc1nc2c(s1)Cc1ccccc1-2)C12CC3CC(CC1C3)C2; 6.3
COC1(OC)CC(C)(C(=O)Nc2nc3c(s2)Cc2ccccc2-3)C1; 7.25
CC(=O)N1CCC(Nc2ncc(-c3ccncc3)c(-c3cccs3)n2)CC1; 6.57
c1csc(-c2nc(NC3CCCCCC3)ncc2-c2ccncc2)c1; 6.79
c1csc(-c2nc(NC3CCC4(CC3)OCCO4)ncc2-c2ccncc2)c1; 6.53
CC1(C(=O)Nc2nc3c(s2)Cc2ccccc2-3)CCCC1; 7.4
CC(C)(CNc1ncc(-c2ccncc2)c(-c2cccs2)n1)C1CCC1; 6.09
O=C(Nc1nc2c(s1)Cc1ccccc1-2)C1CCCCCC1; 6.87

---

biological target: Adenosine receptor A2a (Homo sapiens); assay: Antagonist activity at human A2AR expressed in Flp-In-CHO cells assessed as NECA-mediated cAMP accumulation incubated for 30 to 60 mins followed by NECA addition measured after 30 mins by LANCE cAMP assay (reference value: 8.38 +/- 0.03)
value-kind: EC50 (nM)

Reference set (4 entries):
Cc1ccc2nc(C(=O)Nc3cnc4n3CCCC4)cn2c1; 4.57
COCC(O)CNc1ncc(C)c(-c2ncnn2C)n1 (stereo not drawn); 4.57
Cn1c(=O)c2[nH]c(N(CCO)CCO)nc2n(C)c1=O; 6.92
O=C(CC1CCCC1)N1CCc2c(nc(N3CCCC3)[nH]c2=O)C1; 4.47

1 = CC(C)N1CC(C(=O)Nc2nc3ccccc3[nH]2)CC1=O (stereo not drawn)
2 = O=C(Nc1noc(-c2ccccc2)n1)c1cccc(Cl)c1
3 = O=C(Nc1nc2ccccc2s1)N(CCO)C1CC1
4 = Cc1nnsc1C(=O)Nc1nc2c(s1)Cc1ccccc1-2
Rank items: key EC50, increasing. List the labels in the requested order.
3, 2, 1, 4
(3: 6.03 nM, 2: 10.5 nM, 1: 20.4 nM, 4: 63.1 nM)
